- Test system: Streptococcus pneumoniae
- Assay Info: Expected efficacy of antibiotic agents
- Conditions Used: expected efficacy against Streptococcus pneumoniae; Gram: pos

Item Smiles	Efficacy
CO/N=C(\C(=O)N[C@@H]1C(=O)N2C(C(=O)O)=C(CSc3nc(=O)c(=O)[nH]n3C)CS[C@H]12)c1csc(N)n1	yes
NC[C@H]1O[C@H](O[C@H]2[C@H](O)[C@@H](O[C@H]3O[C@H](CO)[C@@H](O)[C@H](N)[C@H]3O)[C@H](N)C[C@@H]2N)[C@H](N)C[C@@H]1O	no
CC[C@H]1OC(=O)[C@H](C)[C@@H](O[C@H]2C[C@@](C)(OC)[C@@H](O)[C@H](C)O2)[C@H](C)[C@@H](O[C@@H]2O[C@H](C)C[C@H](N(C)C)[C@H]2O)[C@](C)(O)C[C@@H](C)CN(C)[C@H](C)[C@@H](O)[C@]1(C)O	yes
CN[C@H](CC(C)C)C(=O)N[C@H]1C(=O)N[C@@H](CC(N)=O)C(=O)N[C@H]2C(=O)N[C@H]3C(=O)N[C@H](C(=O)N[C@H](C(=O)O)c4cc(O)cc(O)c4-c4cc3ccc4O)[C@H](O)c3ccc(c(Cl)c3)Oc3cc2cc(c3O[C@@H]2O[C@H](CO)[C@@H](O)[C@H](O)[C@H]2O[C@H]2C[C@](C)(N)[C@H](O)[C@H](C)O2)Oc2ccc(cc2Cl)[C@H]1O	yes

====

- Tested on: Legionella pneumophila
- Conditions Used: expected efficacy against Legionella pneumophila; Gram: neg

Item Smiles	Efficacy
CO/N=C(\C(=O)N[C@@H]1C(=O)N2C(C(=O)O)=C(CSc3nc(=O)c(=O)[nH]n3C)CS[C@H]12)c1csc(N)n1	no
CC[C@H]1OC(=O)[C@H](C)[C@@H](O[C@H]2C[C@@](C)(OC)[C@@H](O)[C@H](C)O2)[C@H](C)[C@@H](O[C@@H]2O[C@H](C)C[C@H](N(C)C)[C@H]2O)[C@](C)(O)C[C@@H](C)CN(C)[C@H](C)[C@@H](O)[C@]1(C)O	yes
NC[C@H]1O[C@H](O[C@H]2[C@H](O)[C@@H](O[C@H]3O[C@H](CO)[C@@H](O)[C@H](N)[C@H]3O)[C@H](N)C[C@@H]2N)[C@H](N)C[C@@H]1O	no
C/C(=C\C(=O)OCCCCCCCCC(=O)O)C[C@@H]1OC[C@H](C[C@@H]2O[C@H]2[C@@H](C)[C@H](C)O)[C@@H](O)[C@H]1O	no
O=C(O)c1cn(C2CC2)c2cc(N3CCNCC3)c(F)cc2c1=O	yes

====

- Test system: Streptococcus pyogenes
- Assay Info: Expected efficacy of antibiotic agents
- Conditions Used: expected efficacy against Streptococcus pyogenes; Gram: pos

Item Smiles	Target Of Assay	Efficacy
CO/N=C(\C(=O)N[C@@H]1C(=O)N2C(C(=O)O)=C(CSc3nc(=O)c(=O)[nH]n3C)CS[C@H]12)c1csc(N)n1	Streptococcus pyogenes	yes
CC[C@H]1OC(=O)[C@H](C)[C@@H](O[C@H]2C[C@@](C)(OC)[C@@H](O)[C@H](C)O2)[C@H](C)[C@@H](O[C@@H]2O[C@H](C)C[C@H](N(C)C)[C@H]2O)[C@](C)(O)C[C@@H](C)CN(C)[C@H](C)[C@@H](O)[C@]1(C)O	Streptococcus pyogenes	yes
CN[C@H](CC(C)C)C(=O)N[C@H]1C(=O)N[C@@H](CC(N)=O)C(=O)N[C@H]2C(=O)N[C@H]3C(=O)N[C@H](C(=O)N[C@H](C(=O)O)c4cc(O)cc(O)c4-c4cc3ccc4O)[C@H](O)c3ccc(c(Cl)c3)Oc3cc2cc(c3O[C@@H]2O[C@H](CO)[C@@H](O)[C@H](O)[C@H]2O[C@H]2C[C@](C)(N)[C@H](O)[C@H](C)O2)Oc2ccc(cc2Cl)[C@H]1O	Streptococcus pyogenes	yes
NC[C@H]1O[C@H](O[C@H]2[C@H](O)[C@@H](O[C@H]3O[C@H](CO)[C@@H](O)[C@H](N)[C@H]3O)[C@H](N)C[C@@H]2N)[C@H](N)C[C@@H]1O	Streptococcus pyogenes	no
C/C(=C\C(=O)OCCCCCCCCC(=O)O)C[C@@H]1OC[C@H](C[C@@H]2O[C@H]2[C@@H](C)[C@H](C)O)[C@@H](O)[C@H]1O	Streptococcus pyogenes	yes
